Where a SMILES comes first, the peptide text is derived from it.
MEASURED_PROPERTY: AC50

In: # lookup: Adenosine receptor A1 (Homo sapiens, UniProt P30542) AC50, key = CC(=O)N1CCN(c2ccc(OCC3COC(Cn4ccnc4)(c4ccc(Cl)cc4Cl)O3)cc2)CC1 (stereo not drawn)
Out: > 30 µM

In: # lookup: Adenosine receptor A1 (Homo sapiens, UniProt P30542) AC50, key = COc1ccc2c3c1O[C@H]1C(=O)CC[C@H]4[C@@H](C2)N(C)CC[C@]314 [HYDROCODONE]
Out: > 30 µM

In: # lookup: Adenosine receptor A1 (Homo sapiens, UniProt P30542) AC50, key = CC(C)C[C@H](NC(=O)[C@H](Cc1ccccc1)NC(=O)c1cnccn1)B(O)O
Out: > 30 µM

In: # lookup: Adenosine receptor A1 (Homo sapiens, UniProt P30542) AC50, key = CCN(CC)CCCN(c1ccccc1)C1Cc2ccccc2C1
Out: > 30 µM

In: # lookup: Adenosine receptor A1 (Homo sapiens, UniProt P30542) AC50, key = O=C1CN=C(c2ccccc2Cl)c2cc([N+](=O)[O-])ccc2N1
Out: > 30 µM

In: # lookup: Adenosine receptor A1 (Homo sapiens, UniProt P30542) AC50, key = CCC(=O)[C@@]1(C)[C@H](C)C[C@H]2[C@@H]3CCC4=CC(=O)C=C[C@]4(C)[C@H]3[C@@H](O)C[C@@]21C [RIMEXOLONE]
Out: > 10 µM

In: # lookup: Adenosine receptor A1 (Homo sapiens, UniProt P30542) AC50, key = OCCN(CCO)c1nc(N2CCCCC2)c2nc(N(CCO)CCO)nc(N3CCCCC3)c2n1
Out: > 30 µM

In: # lookup: Adenosine receptor A1 (Homo sapiens, UniProt P30542) AC50, key = CCc1ccc(C(=O)C(C)CN2CCCCC2)cc1 (stereo not drawn)
Out: > 30 µM

In: # lookup: Adenosine receptor A1 (Homo sapiens, UniProt P30542) AC50, key = CO/N=C(\C(=O)N[C@@H]1C(=O)N2C(C(=O)[O-])=C(C[n+]3ccc(N)n3CCO)CS[C@H]12)c1csc(N)n1
Out: > 30 µM

In: # lookup: Adenosine receptor A1 (Homo sapiens, UniProt P30542) AC50, key = COc1ccc(C(Cl)=C(c2ccc(OC)cc2)c2ccc(OC)cc2)cc1
Out: > 30 µM

In: # lookup: Adenosine receptor A1 (Homo sapiens, UniProt P30542) AC50, key = CCC(=O)c1ccc2c(c1)N(CC(C)N(C)C)c1ccccc1S2 (stereo not drawn)
Out: > 10 µM

In: # lookup: Adenosine receptor A1 (Homo sapiens, UniProt P30542) AC50, key = CN(C)CCN(Cc1ccccc1)c1ccccn1
Out: > 10 µM

In: # lookup: Adenosine receptor A1 (Homo sapiens, UniProt P30542) AC50, key = C[C@H](CCC(=O)O)[C@H]1CC[C@H]2[C@@H]3[C@H](O)C[C@@H]4C[C@H](O)CC[C@]4(C)[C@H]3CC[C@]12C
Out: > 30 µM

In: # lookup: Adenosine receptor A1 (Homo sapiens, UniProt P30542) AC50, key = CN1C2CCCC1CC(NC(=O)c1nn(C)c3ccccc13)C2 (stereo not drawn)
Out: > 30 µM

In: # lookup: Adenosine receptor A1 (Homo sapiens, UniProt P30542) AC50, key = C[C@]12C=CC(=O)C=C1C(Cl)=C[C@@H]1[C@@H]2[C@@H](O)C[C@@]2(C)[C@H]1CC[C@]2(O)C(=O)CO
Out: > 30 µM

In: # lookup: Adenosine receptor A1 (Homo sapiens, UniProt P30542) AC50, key = CCC[C@@]1(CCc2ccccc2)CC(O)=C([C@H](CC)c2cccc(NS(=O)(=O)c3ccc(C(F)(F)F)cn3)c2)C(=O)O1
Out: > 30 µM

In: # lookup: Adenosine receptor A1 (Homo sapiens, UniProt P30542) AC50, key = OCC(CO)N[C@H]1C[C@](O)(CO)[C@@H](O)[C@H](O)[C@H]1O
Out: > 30 µM

In: # lookup: Adenosine receptor A1 (Homo sapiens, UniProt P30542) AC50, key = CC(=O)OCC(=O)[C@@]1(O)CC[C@H]2[C@@H]3CCC4=CC(=O)CC[C@]4(C)[C@@]3(F)[C@@H](O)C[C@@]21C [FLUDROCORTISONE ACETATE]
Out: > 30 µM

In: # lookup: Adenosine receptor A1 (Homo sapiens, UniProt P30542) AC50, key = CCOCC(O)COc1ccc(NC(=O)CC[S+](C)C)cc1 (stereo not drawn)
Out: > 30 µM

In: # lookup: Adenosine receptor A1 (Homo sapiens, UniProt P30542) AC50, key = Cc1cnc(Nc2ccc(OCCN3CCCC3)cc2)nc1Nc1cccc(S(=O)(=O)NC(C)(C)C)c1
Out: 7.17 µM

In: # lookup: Adenosine receptor A1 (Homo sapiens, UniProt P30542) AC50, key = Cn1cnc2c(F)c(Nc3ccc(Br)cc3F)c(C(=O)NOCCO)cc21
Out: > 30 µM

In: # lookup: Adenosine receptor A1 (Homo sapiens, UniProt P30542) AC50, key = OCC(O)COc1ccc(Cl)cc1 (stereo not drawn)
Out: > 10 µM

In: # lookup: Adenosine receptor A1 (Homo sapiens, UniProt P30542) AC50, key = C[C@]12CCC(=O)C=C1[C@@H]1C[C@@H]1[C@H]1[C@@H]3[C@@H]4C[C@@H]4[C@@]4(CCC(=O)O4)[C@@]3(C)CC[C@@H]12
Out: > 30 µM

In: # lookup: Adenosine receptor A1 (Homo sapiens, UniProt P30542) AC50, key = C[C@H](N)C(=O)N[C@@H](CCC(N)=O)C(=O)O [ALANYL GLUTAMINE] (H-Ala-Gln-OH)
Out: > 30 µM

In: # lookup: Adenosine receptor A1 (Homo sapiens, UniProt P30542) AC50, key = COc1cc2c(cc1OC)C1CC(=O)C(CC(C)C)CN1CC2 (stereo not drawn)
Out: > 30 µM

In: # lookup: Adenosine receptor A1 (Homo sapiens, UniProt P30542) AC50, key = CCOC(=O)[C@H](CCc1ccccc1)N[C@@H](C)C(=O)N1Cc2ccccc2C[C@H]1C(=O)O
Out: > 30 µM

In: # lookup: Adenosine receptor A1 (Homo sapiens, UniProt P30542) AC50, key = CC(C)(N)Cc1ccccc1
Out: > 30 µM

In: # lookup: Adenosine receptor A1 (Homo sapiens, UniProt P30542) AC50, key = CCCO[C@H]1[C@@H]([C@@H](COCc2ccc(Cl)cc2)OCc2ccc(Cl)cc2)OC(OCC)[C@@H]1O (stereo partly drawn) [CLOBENOSIDE]
Out: > 30 µM

In: # lookup: Adenosine receptor A1 (Homo sapiens, UniProt P30542) AC50, key = C[C@]12CCC(=O)C=C1CC[C@H]1[C@@H]3CC[C@](O)(C(=O)CO)[C@@]3(C)C[C@H](O)[C@@]12F
Out: > 30 µM

In: # lookup: Adenosine receptor A1 (Homo sapiens, UniProt P30542) AC50, key = CCN(C(C)=O)c1cccc(-c2ccnc3c(C#N)cnn23)c1
Out: > 30 µM

In: # lookup: Adenosine receptor A1 (Homo sapiens, UniProt P30542) AC50, key = CC1Cc2ccccc2N1NC(=O)c1ccc(Cl)c(S(N)(=O)=O)c1 (stereo not drawn) [INDAPAMIDE]
Out: > 30 µM

In: # lookup: Adenosine receptor A1 (Homo sapiens, UniProt P30542) AC50, key = Oc1cc(O)c2c(c1)O[C@H](c1ccc(O)c(O)c1)[C@@H](O)C2
Out: > 30 µM

In: # lookup: Adenosine receptor A1 (Homo sapiens, UniProt P30542) AC50, key = CN(C)CCC=C1c2ccccc2CCc2ccccc21
Out: > 30 µM
